Items are presented alongside their recorded remaining at 24 h.
test: Stability in Wistar rat plasma after 24 hrs; format: ADME, cell-free; settings: read-out: Stability
Kindly answer with a numeric value in %, unit omitted.

Annotate the molecule Cc1c([124I])c(=O)n(C2CCCC2)c2nc(Nc3ccc(N4CCNCC4)cn3)ncc12 with its measured remaining at 24 h.
94

Annotate the molecule Cc1c([124I])c(=O)n(C2CCCC2)c2nc(Nc3ccc(N4CCNCC4)cc3)ncc12 with its measured remaining at 24 h.
94

* * *

Items are presented alongside their recorded logD.
assay: Lipophilicity log D at pH 7.4; type: physicochemical; conditions: buffer
No unit in the answer, only the number.

| Smiles Repr | Measured |
| --- | --- |
| Cc1c([124I])c(=O)n(C2CCCC2)c2nc(Nc3ccc(N4CCNCC4)cc3)ncc12 | 2.77 |

Now look at this entry.
Annotate the compound Cc1c([124I])c(=O)n(C2CCCC2)c2nc(Nc3ccc(N4CCNCC4)cn3)ncc12 with its measured logD.
1.99

* * *

test: Stability in Wistar rat plasma after 30 mins; assay type: ADME, cell-free; conditions: read-out: Stability
Items are presented alongside their recorded remaining at 0.5 h.
Kindly answer with a numeric value in %, unit omitted.

| Smiles Repr | U | remaining at 0.5 h |
| --- | --- | --- |
| Cc1c([124I])c(=O)n(C2CCCC2)c2nc(Nc3ccc(N4CCNCC4)cn3)ncc12 | % | 94 |

Now look at this entry.
Annotate the compound Cc1c([124I])c(=O)n(C2CCCC2)c2nc(Nc3ccc(N4CCNCC4)cc3)ncc12 with its measured remaining at 0.5 h.
93

* * *

biological target: Cyclin-dependent kinase 2 (Homo sapiens); experiment: Inhibition of CDK2
pIC50: −log10 of the molar value.
Readout: pIC50

Annotate the molecule Cc1c(I)c(=O)n(C2CCCC2)c2nc(Nc3ccc(N4CCNCC4)cc3)ncc12 with its measured pIC50.
< 6.44

* * *

Items are presented alongside their recorded remaining at 0.5 h.
assay: Stability in ethanol after 30 mins by HPLC; type: physicochemical; settings: read-out: Stability

| Smiles Repr | Measured |
| --- | --- |
| Cc1c([124I])c(=O)n(C2CCCC2)c2nc(Nc3ccc(N4CCNCC4)cn3)ncc12 | 98% |

Now look at this entry.
Annotate the molecule Cc1c([124I])c(=O)n(C2CCCC2)c2nc(Nc3ccc(N4CCNCC4)cc3)ncc12 with its measured remaining at 0.5 h.
93%

* * *

Items are presented alongside their recorded remaining at 0.5 h.
assay: Stability in PBS buffer at pH7.4 after 30 mins by HPLC; format: physicochemical; details: pH 7.4, read-out: Stability
Remember to quote the unit after the number.

| Smiles Repr | Measured |
| --- | --- |
| Cc1c([124I])c(=O)n(C2CCCC2)c2nc(Nc3ccc(N4CCNCC4)cc3)ncc12 | 92% |

Now look at this entry.
Annotate the compound Cc1c([124I])c(=O)n(C2CCCC2)c2nc(Nc3ccc(N4CCNCC4)cn3)ncc12 with its measured remaining at 0.5 h.
97%

* * *

experiment: Stability in PBS buffer at pH7.4 after 24 hrs by HPLC; type: physicochemical; settings: pH 7.4, read-out: Stability
Readout: remaining at 24 h (%)
Kindly answer with a numeric value in %, unit omitted.

| Smiles Repr | Readout | U | Measured |
| --- | --- | --- | --- |
| Cc1c([124I])c(=O)n(C2CCCC2)c2nc(Nc3ccc(N4CCNCC4)cn3)ncc12 | remaining at 24 h | % | 95 |

Annotate the compound Cc1c([124I])c(=O)n(C2CCCC2)c2nc(Nc3ccc(N4CCNCC4)cc3)ncc12 with its measured remaining at 24 h.
86

Origin of measurements: ChEMBL document CHEMBL1154741
